inhibition overview
# ASSAYED_TARGET: RAF proto-oncogene serine/threonine-protein kinase (Homo sapiens) (UniProt P04049)
# Sequence (P04049 whole entry): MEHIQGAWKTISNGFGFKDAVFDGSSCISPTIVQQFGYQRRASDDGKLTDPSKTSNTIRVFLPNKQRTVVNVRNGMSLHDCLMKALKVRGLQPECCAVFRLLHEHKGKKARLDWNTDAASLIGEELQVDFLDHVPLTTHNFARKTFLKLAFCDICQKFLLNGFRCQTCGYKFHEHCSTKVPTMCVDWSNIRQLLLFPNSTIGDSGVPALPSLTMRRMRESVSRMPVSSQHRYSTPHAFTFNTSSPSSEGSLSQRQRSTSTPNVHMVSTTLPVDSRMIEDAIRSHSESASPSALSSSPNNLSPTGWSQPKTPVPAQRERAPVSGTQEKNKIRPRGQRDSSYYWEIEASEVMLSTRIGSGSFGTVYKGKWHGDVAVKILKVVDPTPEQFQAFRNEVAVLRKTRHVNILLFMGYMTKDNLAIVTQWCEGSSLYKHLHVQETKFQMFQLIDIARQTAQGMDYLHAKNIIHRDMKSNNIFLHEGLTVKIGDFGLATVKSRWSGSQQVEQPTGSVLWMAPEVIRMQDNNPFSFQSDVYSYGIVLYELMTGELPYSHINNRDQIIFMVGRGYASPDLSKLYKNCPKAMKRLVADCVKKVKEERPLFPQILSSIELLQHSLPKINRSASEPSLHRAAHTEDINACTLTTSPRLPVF
# PROTOCOL_NOTES: Inhibition of RAF1 at 1 uM

// known answers, use as guide
O=C(O)c1ccc(-c2cnc3c(c2)N(Cc2cc(Cl)ccc2C(F)(F)F)CCN3)cc1; < 50%
CN1CCN(c2ccc(-c3cnc4c(c3)N(Cc3cc(Cl)ccc3C(F)(F)F)CCN4)cn2)CC1; < 50%
COC1CCN(C(=O)c2ccc(-c3cnc4c(c3)N(Cc3cc(Cl)ccc3C(F)(F)F)CCN4)cc2)CC1; < 50%
FC(F)(F)c1ccc(Cl)cc1CN1CCNc2ncc(-c3ccnc(N4CCNCC4)c3)cc21; < 50%
O=C(c1ccc(-c2cnc3c(c2)N(Cc2cc(Cl)ccc2C(F)(F)F)CCN3)cc1)N1CCC(N2CCCC2)CC1; < 50%
CN1CCN(c2ccc(-c3cnc4c(c3)N(Cc3cc(Cl)ccc3Cl)CCN4)cn2)CC1; < 50%

Using the record for CN1CCN(c2ccc(-c3cnc4c(c3)N(Cc3c(F)ccc(F)c3Cl)CCN4)cn2)CC1 , report its inhibition. < 50%

Now give it for O=C(c1ccc(-c2cnc3c(c2)N(Cc2cc(Cl)ccc2C(F)(F)F)CCN3)cc1)N1CCCCC1 too. < 50%

Now give it for CN1CCN(c2ccc(-c3cnc4c(c3)N(Cc3cc(F)ccc3F)CCN4)cn2)CC1 too. < 50%

Now give it for CC(=O)N1CCN(c2cc(-c3cnc4c(c3)N(Cc3cc(Cl)ccc3C(F)(F)F)CCN4)ccn2)CC1 too. < 50%

Where these numbers come from: ChEMBL document CHEMBL1165965
